System: T1, murine PCSK-9 (murine, UniProt Q80W65 35-694)
T1 construct: also called mouse PCSK9
Procedure text: BLI (ForteBio), IgG on AHQ sensor, 100 nM antigen
Measured property: log10 of Kd (log10 of the value in nM)
Short version: log10 scale, Kd, nM.

Binder: ADI-10085 (antibody, human IgG2, kappa, V domains shown, IgG) VH: QLQLQESGPGLVKPSETLSLTCTVSGGSIVSSSYYWAWIRQPPGKGLEWIGSINYKGSTYYNPSLKSRVTISVDTSKNQFSLKLSSVTAADTAVYYCARENSGVVPAAGPNWFGPWGQGTLVTVSS VL: EIVLTQSPATLSLSPGERATLSCRASQSVSSYLAWYQQKPGQAPRLLIYDASNRATGIPARFSGSGSGTDFTLTISSLEPEDFAVYYCQQRRNWFTFGGGTKVEIKR
log10 of Kd: -0.26

# input binder: ADI-10087 (antibody, human IgG2, kappa, V domains shown, also called anti-PCSK antibody of the invention) VH: QLQLQESGPGLVKPSETLSLTCTVSGGSISSASYYWSWIRQPPGKGLEWIGSINYRGSTYYNPSLKSRVTISVDTSKNQFSLKLSSVTAADTAVYYCARENSGVVPAAGPNWFGPWGQGTLVTVSS VL: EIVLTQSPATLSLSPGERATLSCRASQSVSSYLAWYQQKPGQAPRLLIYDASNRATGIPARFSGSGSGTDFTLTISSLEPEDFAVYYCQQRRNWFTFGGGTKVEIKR ; wanted: its log10 of Kd -0.25

Field entry: Evolocumab (antibody, V domains shown) VH: QVQLVQSGAEVKKPGASVKVSCKASGYTLTSYGISWVRQAPGQGLEWMGWVSFYNGNTNYAQKLQGRGTMTTDPSTSTAYMELRSLRSDDTAVYYCARGYGMDVWGQGTTVTVSS VL: QSALTQPASVSGSPGQSITISCTGTSSDVGGYNSVSWYQQHPGKAPKLMIYEVSNRPSGVSNRFSGSKSGNTASLTISGLQAEDEADYYCNSYTSTSMVFGGGTKLTVL 2.06

Query ADI-02396 (antibody, human IgG2, kappa, V domains shown, IgG; also called parent antibody) VH: QLQLQESGPGLVKPSETLSLTCTVSGGSISSSSYYWGWIRQPPGKGLEWIGSIYYSGSTYYNPSLKSRVTISVDTSKNQFSLKLSSVTAADTAVYYCAREGSGVVPAAGPNWFDPWGQGTLVTVSS VL: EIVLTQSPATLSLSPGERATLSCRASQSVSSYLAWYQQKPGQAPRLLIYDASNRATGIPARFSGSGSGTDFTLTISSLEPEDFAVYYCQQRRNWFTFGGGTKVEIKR next 1.89

Lookup ADI-10090 (antibody, human IgG2, kappa, V domains shown, IgG) VH: QLQLQESGPGLVKPSETLSLTCTVSGGSIWSSSYYWTWIRQPPGKGLEWIGSINYRGSTYYNPSLKSRVTISVDTSKNQFSLKLSSVTAADTAVYYCARENSGVVPAAGPNWFDPWGQGTLVTVSS VL: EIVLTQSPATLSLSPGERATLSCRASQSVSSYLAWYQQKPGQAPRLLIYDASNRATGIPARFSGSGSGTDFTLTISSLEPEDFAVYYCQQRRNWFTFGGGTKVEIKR -0.17
